pH 2 solubility values for the compounds below.
assay: Kinetic solubility analysis (CLND: total chemiluminescent nitrogen determination); details: 0.1N HCl, 1.0% DMSO, 24-hour incubation at ambient temperature, maximum theoretical concentration 100 μM

Check out these entries, answers already filled in.
* CC(C)(C#Cc1ccc(-c2ccc(Cl)c3c(NS(C)(=O)=O)nn(CC(F)(F)F)c23)c([C@H](Cc2cc(F)cc(F)c2)NC(=O)Cn2nc(C(F)(F)F)c3c2C(F)(F)[C@@H]2C[C@H]32)n1)S(C)(=O)=O [Intermediate 5, reference compound] | 0.11 μM
* CC(C)(C#Cc1ccc(-c2ccc(Cl)c3c(N(C(=O)[C@H]4C[C@H](NC(=N)N)C4)S(C)(=O)=O)nn(CC(F)(F)F)c23)c([C@H](Cc2cc(F)cc(F)c2)NC(=O)Cn2nc(C(F)(F)F)c3c2C(F)(F)[C@@H]2C[C@H]32)n1)S(C)(=O)=O [Compound 9] | 9 μM
* CC(C)(C#Cc1ccc(-c2ccc(Cl)c3c(N(C(=O)[C@H]4C[C@H](NC(=O)C(=O)O)C4)S(C)(=O)=O)nn(CC(F)(F)F)c23)c([C@H](Cc2cc(F)cc(F)c2)NC(=O)Cn2nc(C(F)(F)F)c3c2C(F)(F)[C@@H]2C[C@H]32)n1)S(C)(=O)=O [Compound 8] | <1/1 μM
* CC(C)(C#Cc1ccc(-c2ccc(Cl)c3c(N(C(=O)N4CCC[C@H]4CN(CC(=O)O)C(=O)OCOP(=O)(O)O)S(C)(=O)=O)nn(CC(F)(F)F)c23)c([C@H](Cc2cc(F)cc(F)c2)NC(=O)Cn2nc(C(F)(F)F)c3c2C(F)(F)[C@@H]2C[C@H]32)n1)S(C)(=O)=O [Compound 33] | 1 μM
* CC(C)(C#Cc1ccc(-c2ccc(Cl)c3c(N(C(=O)N4CCC(N5CCCCC5)CC4)S(C)(=O)=O)nn(CC(F)(F)F)c23)c([C@H](Cc2cc(F)cc(F)c2)NC(=O)Cn2nc(C(F)(F)F)c3c2C(F)(F)[C@@H]2C[C@H]32)n1)S(C)(=O)=O [Compound 2] | 17 μM
* CC(C)(C#Cc1ccc(-c2ccc(Cl)c3c(N(C(=O)N4CCC[C@H]4C(=O)OCOP(=O)(O)O)S(C)(=O)=O)nn(CC(F)(F)F)c23)c([C@H](Cc2cc(F)cc(F)c2)NC(=O)Cn2nc(C(F)(F)F)c3c2C(F)(F)[C@@H]2C[C@H]32)n1)S(C)(=O)=O [Compound 27] | 2 μM

Consider now this further compound.
Provide pH 2 solubility value for the following compound: CC(C)(C#Cc1ccc(-c2ccc(Cl)c3c(N(C(=O)N4CCC[C@H]4CNC(=O)OCOP(=O)(O)O)S(C)(=O)=O)nn(CC(F)(F)F)c23)c([C@H](Cc2cc(F)cc(F)c2)NC(=O)Cn2nc(C(F)(F)F)c3c2C(F)(F)[C@@H]2C[C@H]32)n1)S(C)(=O)=O [Compound 32]
1 μM
